Test system: Contig2992_s_at, Chitinase (EC 3.2.1.14)
testDescription: GEP, barley DNA chip, probe set 5.2
Assay type: in vivo
Parameters: dose or concentration left out as unconfirmed
condition: Hordeum vulgare, topical; barley leaves 6 h after spray application; rates of Table 1 (S7 500); median induction factor vs control; read-out: Expression value, 5.2 Contig2992_s_at
Here, each record is paired with measured fold induction data.
reportedEndpoint: fold induction

molecule: COC(=O)C1=NN(c2ccc(Cl)cc2Cl)C(C)(C(=O)OC)C1 (stereo not shown)
assayResult: 6.5
--
molecule: NC(=O)c1ccc(C(F)(F)F)nc1O
assayResult: 2.27
--
molecule: O=C(O)C1=NN(c2ccc(Cl)cc2Cl)C(c2ccc(F)cc2)C1 (stereo not shown)
assayResult: 1
--
molecule: CCOC(=O)C(Oc1ccc(Cl)c2cccnc12)C(=O)OCC
assayResult: 3.12
--
molecule: O=C(O)c1cc(Cl)cc(Cl)c1O
assayResult: 1
--
molecule: CCCCCC(C)OC(=O)COc1ccc(Cl)c2cccnc12 (stereo not shown)
assayResult: 1
--
molecule: CSC(=O)c1cccc2nnsc12
assayResult: 1

----------
Tested on: Contig34_s_at, Putative proteinase inhibitor
testDescription: GEP, barley DNA chip, probe set 2.2
Assay type: in vivo
Set-up: dose or concentration left out as unconfirmed
condition: Hordeum vulgare, topical; barley leaves 6 h after spray application; rates of Table 1 (S7 500); median induction factor vs control; read-out: Expression value, 2.2 Contig34_s_at
# fold induction per record follows

compound: CCOC(=O)C(Oc1ccc(Cl)c2cccnc12)C(=O)OCC
fold induction: 1
--
compound: CSC(=O)c1cccc2nnsc12
fold induction: 3.68
--
compound: O=C(O)c1cc(Cl)cc(Cl)c1O
fold induction: 2.08
--
compound: O=C(O)C1=NN(c2ccc(Cl)cc2Cl)C(c2ccc(F)cc2)C1 (stereo not shown)
fold induction: 1
--
compound: COC(=O)C1=NN(c2ccc(Cl)cc2Cl)C(C)(C(=O)OC)C1 (stereo not shown)
fold induction: 1
--
compound: CCCCCC(C)OC(=O)COc1ccc(Cl)c2cccnc12 (stereo not shown)
fold induction: 1
--
compound: NC(=O)c1ccc(C(F)(F)F)nc1O
fold induction: 1

----------
Tested on: Contig6611_at, Similar to lipases
testDescription: GEP, barley DNA chip, probe set 1.12
Format: in vivo
Parameters: dose or concentration left out as unconfirmed
condition: Hordeum vulgare, topical; barley leaves 6 h after spray application; rates of Table 1 (S7 500); median induction factor vs control; read-out: Expression value, 1.12 Contig6611_at
reportedEndpoint: fold induction

molecule: COC(=O)C1=NN(c2ccc(Cl)cc2Cl)C(C)(C(=O)OC)C1 (stereo not shown)
targetEntity: Contig6611_at, Similar to lipases
assayResult: 1
//
molecule: CCCCCC(C)OC(=O)COc1ccc(Cl)c2cccnc12 (stereo not shown)
targetEntity: Contig6611_at, Similar to lipases
assayResult: 1
//
molecule: CSC(=O)c1cccc2nnsc12
targetEntity: Contig6611_at, Similar to lipases
assayResult: 3.61
//
molecule: O=C(O)c1cc(Cl)cc(Cl)c1O
targetEntity: Contig6611_at, Similar to lipases
assayResult: 2.38
//
molecule: NC(=O)c1ccc(C(F)(F)F)nc1O
targetEntity: Contig6611_at, Similar to lipases
assayResult: 1
//
molecule: CCOC(=O)C(Oc1ccc(Cl)c2cccnc12)C(=O)OCC
targetEntity: Contig6611_at, Similar to lipases
assayResult: 1
//
molecule: O=C(O)C1=NN(c2ccc(Cl)cc2Cl)C(c2ccc(F)cc2)C1 (stereo not shown)
targetEntity: Contig6611_at, Similar to lipases
assayResult: 1
